Target: T1, human SIRP-α v2 D1 domain (human)
T1 construct: also called human v2
T1 sequence (chain, as listed by the source limits assumed): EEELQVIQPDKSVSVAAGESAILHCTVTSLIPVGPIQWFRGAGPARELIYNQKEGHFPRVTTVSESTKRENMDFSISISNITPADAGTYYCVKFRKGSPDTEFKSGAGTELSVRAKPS
Assay: SPR, Langmuir fit
quantity: koff
Write your answer as a measured quantity: the number, then the unit.

Use the examples below as a reference point.
binder: S174 (scFv, V domains shown) VH: DVQLVESGGGVVRPGESLRLSCAASGFTFSDHDMSWVRQGPGEGLEWVAGISLRGGVTWYADSVKGRFTISRDNSKNTLYLRLFSLRTEDTAIYYCARESWNTFFDYWGLGTLVTVSS VL: EIVLTQSPGTLSLSPGETATLSCRASQNVRSNLAWYQQKPGQAPRLLIYDASSRATGIPDRFSGSGSGTDFTLTISSLQSEDFAVYYCQQYGNGPPLTFGGGTKVEIK
koff: 0.00399 s⁻¹
--
binder: S70 (scFv, V domains shown, also called clone 70) VH: DVQLVESGGGVVRPGESLRLSCAASGFTFSSYAMSWVRQAPGKGLEWLAGISAGGSDAYYIDSVKGRFTISRDNSKNSLYLQMNSLTAEDTAVYYCARETWNHLFDYWGLGTLVTVSS VL: ALTQPASVSANPGETVKITCSGGDWYSTYYGWYQQKSPGSAPVTVIHSDDKRPSDIPSRFSGSASGSAATLTITGVRVEDEAVYYCAGYDGRTYINTFGAGTTLTVL
koff: 0.00029 s⁻¹
--
binder: S17 (scFv, V domains shown, also called clone 17) VH: DVQLVESGGAVVRPGESLRLSCAASGFTFSSYAMSWVRQAPGKGLEWLAGISAGGSDTYYIDSVKGRFTISRDNSENSLYLQMNSLTAEDTAVYYCARETWNHLFDYWGLGTLVTVSS VL: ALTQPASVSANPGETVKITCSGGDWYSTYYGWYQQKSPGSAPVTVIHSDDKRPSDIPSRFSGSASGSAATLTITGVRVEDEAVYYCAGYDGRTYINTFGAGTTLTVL
koff: 0.000197 s⁻¹
--
binder: S16 (scFv, V domains shown, also called clone 16) VH: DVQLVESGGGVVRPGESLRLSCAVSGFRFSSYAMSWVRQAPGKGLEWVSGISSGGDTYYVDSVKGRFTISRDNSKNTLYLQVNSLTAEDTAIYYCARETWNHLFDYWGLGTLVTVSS VL: ALTQPASVSANLGETVKITCSGGDSSSHYYGWYQQKSPGSAPVTVIYSDDERPSDIPSRFSGSASGSTATLTITGVRVEDEAIYYCGAYDGSTYANTFGAGTTLTVL
koff: 0.000111 s⁻¹

// next entry
Consider S24 (scFv, V domains shown, also called clone 24) VH: DVQLVESGGGVVRPGESLRLSCAASGFTFSSNAMSWVRQAPGKGLEWLAGISAGGSDTYYPASVKGRFTISRDNPKNTLYLQMNTLTAEDTAVYYCARETWNHLFDYWGLGTLVTVSS VL: ALTQPASVSANPGETVKIACSGGSYYSYYYGWYQQKSPGSALVTVIYSDDKRPSGIPSRFSGSASGSTATLTITGVRAEDEAVYYCGGYDYSSYTNDFGAGTTLTVL . Its measured koff is 0.000317 s⁻¹

Reference source: patent US20210363269A1
